tested on: rodent lifetime carcinogenesis bioassay, tumor incidence TD50; assay: carcinogenic potency in animals, long-term in vivo studies, CPDB compilation (AID 1745844); conditions: rat; strain Osborne-Mendel; males; in drinking water; site: all sites; lesion: several types; types named in the paper; dosed 104 weeks; study length 104 weeks
Property measured: TD50 (mg/kg/day)
Numbers only, in mg/kg/day.

Quick one: give measured TD50 for ClC(Cl)Cl
1360

---

test system: rodent lifetime carcinogenesis bioassay, tumor incidence TD50; experiment: carcinogenic potency in animals, long-term in vivo studies, CPDB compilation (AID 1745844); conditions: mouse; strain B6C3F1; females; by gavage; site: lung; lesion: alveolar/bronchiolar adenoma; dosed 78 weeks; study length 78 weeks
The source made the active and inactive calls. The rule behind the calls is not given here.
Property measured: TD50

Quick one: give measured TD50 for CC1=C(C(=O)OC(C)C)C(c2cccc([N+](=O)[O-])c2)C(C(=O)OC2CN(C(c3ccccc3)c3ccccc3)C2)=C(N)N1 (stereo unspecified)
217 mg/kg/day (inactive)
